Item-by-item account of pEC50
Tested Target: Sphingosine 1-phosphate receptor 5 (Homo sapiens, UniProt Q9H228)
Sequence (Q9H228 whole entry): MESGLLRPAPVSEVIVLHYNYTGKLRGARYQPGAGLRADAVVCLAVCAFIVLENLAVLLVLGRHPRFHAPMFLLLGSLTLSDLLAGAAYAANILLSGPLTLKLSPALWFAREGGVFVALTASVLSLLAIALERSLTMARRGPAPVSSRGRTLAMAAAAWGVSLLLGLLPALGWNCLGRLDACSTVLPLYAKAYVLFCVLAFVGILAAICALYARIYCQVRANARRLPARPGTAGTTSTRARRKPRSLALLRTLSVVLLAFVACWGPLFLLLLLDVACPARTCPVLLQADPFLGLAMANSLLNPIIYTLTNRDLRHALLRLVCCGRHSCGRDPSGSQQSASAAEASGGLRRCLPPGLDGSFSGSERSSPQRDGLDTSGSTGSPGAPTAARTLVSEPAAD
Assay: Agonist activity at recombinant human S1PR5 expressed in CHO cell membranes assessed as [35S]GTP-gammaS binding measured after 1.5 hrs by TopCount scintillation counting method
Note on units: pEC50 is unitless, being -log10 of a concentration expressed in mol/L.

Answered examples (3):
Compound	Number
CC(CNCc1cc2cccc(-c3ccc4ccccc4c3)c2s1)C(=O)O (configuration not stated)	6.05
O=C(O)C1CN(Cc2cc3c(-c4ccc5ccccc5c4)cccc3s2)C1	6.76
CCc1ccccc1-c1cccc2cc(CNc3cccc(CC(=O)O)c3)sc12	5.40

Inquiry: Fill in the recorded pEC50 for this compound, with Sphingosine 1-phosphate receptor 5 (Homo sapiens, UniProt Q9H228) as test system: NC(CNCc1cc2cc(-c3ccc4ccccc4c3)ccc2s1)C(=O)O (configuration not stated)
Reply text: 6.14

Inquiry: Now consider O=C(O)c1ccc(CNCc2cc3cccc(-c4ccc5ccccc5c4)c3s2)cc1 and answer again.
Reply text: 5.35

Inquiry: Now the compound O=C(O)C1CN(Cc2cc3cccc(-c4ccc5ccccc5c4)c3s2)C1
Reply text: 6.30

Inquiry: Also O=C(O)c1ccc(CNCc2cc3c(-c4ccc5ccccc5c4)cccc3s2)cc1 , if possible.
Reply text: 6.45

Inquiry: Would you kindly repeat that for O=C(O)CCCNCc1cc2cccc(-c3cccc(-c4ccccc4)c3)c2s1 ?
Reply text: 7.31

Inquiry: Entry O=C(O)Cc1cccc(NCc2cc3cccc(-c4ccc5ccccc5c4)c3s2)c1 please
Reply text: 5.78

Inquiry: Likewise for O=C(O)CCNCc1cc2cc(-c3ccc4ccccc4c3)ccc2s1 ?
Reply text: 7.60

Inquiry: What do we get for NC(CNCc1cc2c(-c3ccc4ccccc4c3)cccc2s1)C(=O)O (configuration not stated) ?
Reply text: 6.48

Inquiry: Please do the same for O=C(O)CCCNCc1cc2cccc(-c3ccc(-c4ccccc4)cc3)c2s1 as well.
Reply text: 5.19

Inquiry: Do the same for O=C(O)CCNCc1cc2c(-c3ccc4ccccc4c3)cccc2s1 please
Reply text: 7.51

Inquiry: Would you kindly repeat that for O=C(O)CCCNCc1cc2cccc(-c3ccc4c(c3)OCO4)c2s1 ?
Reply text: 5.50

Inquiry: Please do the same for CCc1ccccc1-c1cccc2cc(CNc3ccc(CC(=O)O)cc3)sc12 as well.
Reply text: 5.68

Inquiry: // query: CCc1ccccc1-c1cccc2cc(CNCC(C)C(=O)O)sc12 (configuration not stated)
Reply text: 5.37

Inquiry: Also O=C(O)CCCNCc1cc2cccc(-c3cccc(C(F)(F)F)c3)c2s1 , if possible.
Reply text: 5.51

Origin of the recorded values: ChEMBL document CHEMBL3875189
